test system: Noggin (protein binding on small-molecule microarray); test: Noggin binders on small-molecule microarray, primary screen, biochemical, 635/667 nm fluorescence (AID 1095); settings: 635 nm fluorescence, higher = more signal;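 also: score merges 667 nm feature fluorescence with signal to noise over triplicate slides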
In this scheme, each record receives a class according to its composite z-score; the ranges are low bracket = under 0.03, middle bracket = from 0.03 up to 0.7, high bracket = 0.7 and over

| compound | category_label |
| --- | --- |
| O=C/C=C/c1ccc2c(c1)OCO2 | middle bracket |
| O=C(CCN1CCOCC1)c1cccc(O)c1 | middle bracket |
| CC(C)=CCCC(C)=CC(O)C1C=CC2C(=O)N(c3ccccc3)C(=O)C2N1Nc1ccccc1 (centres undefined) | low bracket |
| COC(=O)[C@@]1(Cc2ccc(F)cc2)[C@H]2c3cc(C(=O)N(C)C)n(CCc4ccccn4)c3C[C@H]2CN1C(=O)c1ccccc1 | middle bracket |
| COCC(=C=CC[C@H](O)c1ccc(OCCO)cc1)C[C@H](O)c1cc(Cl)cc(Cl)c1O | high bracket |
| COc1ccccc1CN1C(=O)c2ccccc2[C@@H](C(=O)NCCN2CCOCC2)[C@@H]1c1ccc(CO)cc1 | low bracket |
| O=C(CS)NCCCCCCNC(=O)[C@H]1C[C@H]2C(=O)N3CCC[C@H]3C(=O)N2[C@H]1c1cccc(OCCO)c1 | high bracket |
| O=C1OCCC=C[C@H]2OC34C=CCN(c5ccc6ccccc6c5)C(=O)[C@H]3N(CCCCCO)C(=O)[C@@H]4C12 (some centres undefined) | low bracket |
| CC(C)CNC(=O)[C@@]1(c2ccc([N+](=O)[O-])cc2)CC(=O)N(CC23CC4CC(CC(C4)C2)C3)[C@@H]1c1ccc(CO)cc1 | middle bracket |

====

assay: E. coli growth modulation, two-sided OD650, primary screen, E. coli filamentation project, strain DRC41, 24 h (AID 1093); settings: OD650, 24 h, higher = more signal, called active from +8 up or from −8 down;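 also: MC1000 strain lacking acrAB efflux and sulA so SOS filamentation is blocked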
Label f if z-score falls below 0.5; label t in every other case.

| compound | category_label |
| --- | --- |
| [N-]=[N+]=NCc1ccccc1C[C@@]1(C(=O)NCC(O)CO)N=C(c2ccc(OCCCO)cc2)O[C@@H]1c1ccccc1CN=[N+]=[N-] (some centres not stated) | t |
| CCCC[C@@H]1C[C@H]1[C@@H](NC(=O)c1ccc(-c2ccccc2)cc1)c1ccc(-c2ccccc2)cc1 | f |
| O=C1O[C@H](c2ccccc2)[C@H](c2ccccc2)N2[C@H]1[C@@H](C(=O)NC[C@H](O)c1ccccc1)[C@]1(C(=O)Nc3ccc(C#CCCO)cc31)[C@H]2c1ccc(O)cc1 | f |
| CCCCC(CC)C(O)C1C=CC2C(=O)N(c3ccccc3)C(=O)C2N1Nc1ccccc1 (configuration not stated) | f |
| CC(C)CNC(=O)[C@@]1(c2ccc([N+](=O)[O-])cc2)CC(=O)N(CC23CC4CC(CC(C4)C2)C3)[C@@H]1c1ccc(CO)cc1 | t |
| COCCOC(=O)N1C(=O)[C@@]2(c3ccccc31)[C@H](c1ccc(O)cc1)N1[C@H](c3ccccc3)[C@H](c3ccccc3)OC(=O)[C@H]1[C@@H]2C(=O)N1CCc2cc(OC)c(OC)cc2C1 | f |
| C=C(COC)/C(=C/C[C@H](OC(=O)c1ccncc1)c1cccc(OCCO)c1)c1cc(C(=O)OC)ccc1OC | t |

====

Measured composite z-score values are reported for all entries that follow.
molecular target: Follistatin (Homo sapiens); assay: follistatin binders on small-molecule microarrays, primary screen, biochemical, small-molecule microarray, 635/667 nm fluorescence (AID 1132); conditions: FST binding, 635 nm fluorescence, higher = more signal

| compound | assayed_system | composite z-score |
| --- | --- | --- |
| CN1CCC(CCCO)=CC1c1ccc(CN2CCCC2)cc1 (stereo not drawn) | Follistatin (Homo sapiens) | 1.42 |
| COC(=O)c1c(CC[C@@H](CO)NC(=O)N[C@@H](Cc2ccccc2)Cn2cc(C3(O)CCCCC3)nn2)oc(C(C)=O)c1C(=O)OC | Follistatin (Homo sapiens) | 0.691 |
| C[C@]1(C(=O)NCc2ccccc2)c2ccccc2C(=O)N(Cc2ccc(OC(F)(F)F)cc2)[C@H]1c1ccc(CO)cc1 | Follistatin (Homo sapiens) | 0.49 |
| CC(=O)NCCCC[C@@H]1NC(=O)[C@H]2C[C@@H](C(=O)NCCCCCC[N+](C)(C)C)[C@@H](c3cccc(OCCO)c3)N2C1=O | Follistatin (Homo sapiens) | 1.4 |
| C=CC[C@@]1(C(=O)O)N=C(c2ccc(OCCCO)cc2)O[C@@H]1c1ccccc1N=[N+]=[N-] | Follistatin (Homo sapiens) | 1.1 |
| O=C1O[C@@H](c2ccccc2)[C@@H](c2ccccc2)N2[C@@H](c3ccc(OCCO)cc3)[C@]3(C(=O)Nc4ccccc43)[C@@H](C(=O)Nc3nc4ccccc4s3)[C@H]12 | Follistatin (Homo sapiens) | 1.21 |
| CCC[C@@H]1C=C(C(=O)O)[C@H](c2ccc(C)cc2)N1S(=O)(=O)c1ccc(C)cc1 | Follistatin (Homo sapiens) | 0.118 |
| O=C1OCCC=C[C@H]2OC34C=CCN(Cc5ccccc5)C(=O)[C@H]3N(CCCO)C(=O)[C@@H]4C12 (stereo partly drawn) | Follistatin (Homo sapiens) | -0.145 |

====

system: XIP peptide (Xip251-270) binding; test: small-molecule binders of XIP peptide, primary screen, biochemical, small-molecule microarray, fluorescence 635/667 nm, 0.1 µg/mL protein (AID 1182); conditions: fluorescent protein binding, 635 nm, higher = more signal, called active from +8 up or from −8 down
Measured composite z-score values are reported for all entries that follow.

| compound | composite z-score |
| --- | --- |
| COC(=O)[C@]1(Cc2ccccc2N=[N+]=[N-])N=C(c2ccc(OCCCO)cc2)O[C@@H]1c1ccccc1N=[N+]=[N-] | 0.404 |
| C=CCOC(=O)[C@@H]1[C@H]2C(=O)O[C@H](c3ccccc3)[C@H](c3ccccc3)N2[C@H](c2ccc(OCCOC(=O)[C@@H]3C[C@@H]4C(=O)N[C@@H](Cc5ccccc5)C(=O)N4[C@@H]3c3cccc(OCCO)c3)cc2)[C@@]12C(=O)Nc1ccc(I)cc12 | 0.299 |
| CC(C)C(=C=CC[C@@H](O)c1ccccc1OCCO)C[C@@H](O)c1ccccn1 | 2.26 |
| C[C@]1(C(=O)NCc2ccccc2)c2ccccc2C(=O)N(Cc2cc(F)cc(C(F)(F)F)c2)[C@H]1c1ccc(CO)cc1 | 0.753 |
| CC(C)c1ccc(NN2C(C(O)c3cccc(O)c3)C=CC3C(=O)N(c4ccccc4)C(=O)C32)cc1 (stereo unspecified) | 0.305 |
| CCOC(=O)C[C@H]1[C@H](OC(=O)Cc2ccc3c(c2)OCO3)[C@@H](NC(=O)C2CCCCC2)c2cc(OCCCO)ccc2N1C(=O)Cc1ccc(OC)cc1 | -0.219 |

====

system: Chordin-like protein 2 (CHRDL2); experiment: CHRDL2 small-molecule binders, primary screen, biochemical, small-molecule microarray, 635 nm fluorescence (AID 1126); conditions: small-molecule microarray binding, fluorescence 635 nm; higher = more signal;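 also: printed compound slides probed with Chrdl2 protein at 4 µg/mL for 1 h at 4 C; score merges 667 nm emission intensity with signal to noise over three replicate slides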
In this scheme, each record receives a class according to its composite z-score; the ranges are LOW (below 0.002), MID (0.002 to below 0.8), HIGH (0.8 or more)

| molecule | assayed_system | category_label |
| --- | --- | --- |
| COc1ccc(CCNC(=O)[C@@]2(Sc3ccc(C)cc3)CC(=O)N(Cc3ccccc3Cl)[C@@H]2c2ccc(CO)cc2I)cc1 | Chordin-like protein 2 (CHRDL2) | MID |
| CCOC(=O)C[C@H]1[C@H](OC(=O)Cc2ccc3c(c2)OCO3)[C@@H](NC(=O)c2ccc(-c3ccccc3)cc2)c2cc(OCCCO)ccc2N1C(=O)c1ccccc1 | Chordin-like protein 2 (CHRDL2) | MID |
| CCC[C@@H]1C=C(C(=O)O)[C@H](c2ccc(C)cc2)N1S(=O)(=O)c1ccc(C)cc1 | Chordin-like protein 2 (CHRDL2) | LOW |
| COc1ccc(C#Cc2ccc3c(c2)[C@]2(C(=O)N3)[C@H](C(=O)NC[C@H](O)c3ccccc3)[C@H]3C(=O)O[C@H](c4ccccc4)[C@H](c4ccccc4)N3[C@@H]2c2ccccc2OCCO)cc1 | Chordin-like protein 2 (CHRDL2) | MID |
| COC(=O)[C@@]1(Cc2ccccc2)[C@H]2c3cc(C(=O)N4CCCC4)n(C)c3C[C@H]2CN1C(=O)c1ccccc1 | Chordin-like protein 2 (CHRDL2) | LOW |
| O=C1C2C=CC(C(O)c3ccc(B(O)O)cc3)N(Nc3ccccc3)C2C(=O)N1c1ccccc1 (stereo unspecified) | Chordin-like protein 2 (CHRDL2) | LOW |
| CCC(CC)C(O)C1C=CC2C(=O)N(c3ccccc3)C(=O)C2N1Nc1ccc(C#N)cc1 (stereo unspecified) | Chordin-like protein 2 (CHRDL2) | MID |
| CCOC(=O)C1=CCC(c2ccc([N+](=O)[O-])cc2)N(S(=O)(=O)c2ccc(C)cc2)C1 (stereo unspecified) | Chordin-like protein 2 (CHRDL2) | LOW |
| Cc1ccc(S[C@]2(C(=O)NCc3ccccc3)CC(=O)N(Cc3ccccc3)[C@@H]2c2ccc(CO)cc2)cc1 | Chordin-like protein 2 (CHRDL2) | LOW |
| O=C1N(CCS(=O)(=O)c2ccccc2)Cc2ccccc2[C@H]2OC(c3ccc(OCCCO)cc3)=N[C@@]12CCS(=O)(=O)c1ccccc1 | Chordin-like protein 2 (CHRDL2) | MID |
| O=C1O[C@@H](c2ccccc2)[C@@H](c2ccccc2)N2[C@@H](c3ccc(O)cc3)[C@]3(C(=O)Nc4ccc(C#CC5(O)CCCCCC5)cc43)[C@@H](C(=O)N3CCCCCCC3)[C@H]12 | Chordin-like protein 2 (CHRDL2) | HIGH |
| Cc1ccc(S[C@]2(C(=O)NC3CC3)CC(=O)N(C3CCCCC3)[C@@H]2c2ccc(CO)cc2I)cc1 | Chordin-like protein 2 (CHRDL2) | MID |
| COC(=O)[C@@]1(Cc2ccccc2)N=C(c2ccc(OCCCO)cc2)O[C@H]1c1ccccc1N=[N+]=[N-] | Chordin-like protein 2 (CHRDL2) | HIGH |
| O=C1C[C@@](C(=O)NC2CC2)(c2ccc([N+](=O)[O-])cc2)[C@@H](c2ccc(CO)cc2)N1CC12CC3CC(CC(C3)C1)C2 | Chordin-like protein 2 (CHRDL2) | LOW |
| CC(C)C[C@@H]1NC(=O)[C@H]2C[C@@H](C(=O)NCCCCCNC(=O)CS)[C@@H](c3cccc(OCCO)c3)N2C1=O | Chordin-like protein 2 (CHRDL2) | HIGH |
| O=C/C=C/c1ccc2c(c1)OCO2 | Chordin-like protein 2 (CHRDL2) | HIGH |
| C=CCOC(=O)[C@@H]1[C@H]2C(=O)O[C@H](c3ccccc3)[C@H](c3ccccc3)N2[C@H](c2ccc(OCCOC(=O)[C@@H]3C[C@@H]4C(=O)N[C@@H](Cc5ccccc5)C(=O)N4[C@@H]3c3cccc(OCCO)c3)cc2)[C@@]12C(=O)Nc1ccc(I)cc12 | Chordin-like protein 2 (CHRDL2) | HIGH |
| [N-]=[N+]=NCc1ccccc1[C@@H]1OC(c2ccc(OCCCO)cc2)=N[C@]1(Cc1ccccc1N=[N+]=[N-])C(=O)NCc1ccccc1 | Chordin-like protein 2 (CHRDL2) | MID |
| COCCOC(=O)N1C(=O)[C@@]2(c3cc(C#CC4=CCCCC4)ccc31)[C@H](C(=O)N1CCc3cc(OC)c(OC)cc3C1)[C@H]1C(=O)O[C@H](c3ccccc3)[C@H](c3ccccc3)N1[C@@H]2c1ccccc1OCCO | Chordin-like protein 2 (CHRDL2) | HIGH |
| COc1ccc(C(=O)Nc2cccc(CN3C(=O)[C@@]4(O[C@@H](CCn5cc(CCO)nn5)[C@H]([Si](C)(C)c5ccc(OC)cc5)[C@H]4C)c4ccccc43)c2)cc1 | Chordin-like protein 2 (CHRDL2) | HIGH |
| CC(C)C[C@@H]1NC(=O)[C@@H]2C[C@H](C(=O)NCCCCCC[N+](C)(C)C)[C@H](c3ccc(O)cc3)N2C1=O | Chordin-like protein 2 (CHRDL2) | HIGH |
| CC(C)CNC(=O)[C@@]1(c2ccc([N+](=O)[O-])cc2)CC(=O)N(CC23CC4CC(CC(C4)C2)C3)[C@@H]1c1ccc(CO)cc1I | Chordin-like protein 2 (CHRDL2) | MID |
| O=C1OCC=C[C@H]2OC34C=CCN(c5ccc(Cl)cc5)C(=O)[C@H]3N(CCCCCCO)C(=O)[C@@H]4[C@@H]12 (stereo partly specified) | Chordin-like protein 2 (CHRDL2) | LOW |
| COc1cc(C(O)C2C=CC3C(=O)N(c4ccccc4)C(=O)C3N2Nc2ccc(C#N)cc2)cc(OC)c1OC (stereo unspecified) | Chordin-like protein 2 (CHRDL2) | LOW |
